target: Rat NHE-3 (Rattus norvegicus); construct: expressed in transfected cells; host or cells: Opossum kidney (OK) cells (ATCC), transfected by electroporation; test: Cell-based assay of NHE-3 activity (persistent inhibition, after washout); conditions: OK cells with rat NHE-3 gene, 60 min incubation, recovery initiated 40 min after compound washout; read-out: Rat NHE3 pIC50 (persistent) (converted)
Sequence (P26433 29-831): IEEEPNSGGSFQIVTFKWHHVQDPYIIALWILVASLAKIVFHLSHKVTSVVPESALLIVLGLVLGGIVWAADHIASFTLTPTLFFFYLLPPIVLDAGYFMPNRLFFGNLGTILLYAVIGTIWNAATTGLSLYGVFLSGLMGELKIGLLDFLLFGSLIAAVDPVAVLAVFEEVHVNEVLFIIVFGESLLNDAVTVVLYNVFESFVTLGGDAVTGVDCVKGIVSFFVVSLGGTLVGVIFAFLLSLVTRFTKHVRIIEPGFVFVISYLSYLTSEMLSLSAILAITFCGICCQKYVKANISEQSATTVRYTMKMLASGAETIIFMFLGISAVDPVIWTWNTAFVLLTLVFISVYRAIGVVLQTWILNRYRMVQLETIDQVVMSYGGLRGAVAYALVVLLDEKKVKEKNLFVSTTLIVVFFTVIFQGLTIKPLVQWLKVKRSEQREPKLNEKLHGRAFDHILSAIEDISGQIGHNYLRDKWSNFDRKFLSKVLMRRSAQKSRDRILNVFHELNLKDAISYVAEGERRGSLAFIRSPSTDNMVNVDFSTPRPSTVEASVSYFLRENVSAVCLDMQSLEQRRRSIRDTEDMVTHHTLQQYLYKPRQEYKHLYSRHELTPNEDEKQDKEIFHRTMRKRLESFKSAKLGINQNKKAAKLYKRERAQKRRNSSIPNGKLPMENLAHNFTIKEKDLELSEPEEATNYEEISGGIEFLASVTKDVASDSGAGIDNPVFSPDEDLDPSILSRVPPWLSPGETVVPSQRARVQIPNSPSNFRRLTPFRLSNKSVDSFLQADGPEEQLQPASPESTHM
This section presents compounds with their documented IC50 values.

// solved cases for IC50 follow
{"MOLECULAR_STRING": "CN1Cc2c(Cl)cc(Cl)cc2[C@H](c2cccc(S(=O)(=O)NCCOCCOCCOCCNC(=O)CCC(CCC(=O)NCCOCCOCCOCCNS(=O)(=O)c3cccc([C@@H]4CN(C)Cc5c(Cl)cc(Cl)cc54)c3)(CCC(=O)NCCOCCOCCOCCNS(=O)(=O)c3cccc([C@@H]4CN(C)Cc5c(Cl)cc(Cl)cc54)c3)NCc3ccc(-c4ccc(Cl)cc4)cc3)c2)C1", "IC50": "< 100 nM"}
{"MOLECULAR_STRING": "CN1Cc2c(Cl)cc(Cl)cc2[C@H](c2cccc(S(=O)(=O)NCCOCCOCCNC(=O)NCCCN(CCCNC(=O)NCCOCCOCCNS(=O)(=O)c3cccc([C@@H]4CN(C)Cc5c(Cl)cc(Cl)cc54)c3)CCCNC(=O)NCCOCCOCCNS(=O)(=O)c3cccc([C@@H]4CN(C)Cc5c(Cl)cc(Cl)cc54)c3)c2)C1", "IC50": "< 100 nM"}

Shifting focus to the compound that follows.
Any idea what its IC50 is? The compound is CCC(=O)NC(CCC(=O)NCCOCCOCCOCCNS(=O)(=O)c1cccc([C@@H]2CN(C)Cc3c(Cl)cc(Cl)cc32)c1)(CCC(=O)NCCOCCOCCOCCNS(=O)(=O)c1cccc([C@@H]2CN(C)Cc3c(Cl)cc(Cl)cc32)c1)CCC(=O)NCCOCCOCCOCCNS(=O)(=O)c1cccc([C@@H]2CN(C)Cc3c(Cl)cc(Cl)cc32)c1
< 100 nM

---

Target: Rat NHE-3 (Rattus norvegicus)
Construct: expressed in transfected cells; host or cells: Opossum kidney (OK) cells (ATCC), transfected by electroporation
Experiment: Cell-based assay of NHE-3 activity (rat NHE-3 prompt inhibition)
Conditions: OK cells with rat NHE-3 gene, compound present during pH recovery; read-out: Rat NHE3 pIC50 (prompt) (converted)
Procedure: Rat or human NHE-3-mediated Na^+-dependent H^+ antiport was measured using a modification of the pH sensitive dye method originally reported by Paradiso (Proc. Natl. Acad. Sci. USA. (1984) 81(23): 7436-7440). Opossum kidney (OK) cells were obtained from the ATCC and propagated per their instructions. The rat NHE-3 gene (GenBank M85300) or the human NHE-3 gene (GenBank NM_004174.1) was introduced into OK cells via electroporation, and cells were seeded into 96 well plates and grown overnight. […]
ASSAY_ENDPOINT: IC50

{"COMPOUND": "CN1Cc2c(Cl)cc(Cl)cc2[C@H](c2cccc(S(=O)(=O)NCCOCCOCCNC(=O)NCCCN(CCCNC(=O)NCCOCCOCCNS(=O)(=O)c3cccc([C@@H]4CN(C)Cc5c(Cl)cc(Cl)cc54)c3)CCCNC(=O)NCCOCCOCCNS(=O)(=O)c3cccc([C@@H]4CN(C)Cc5c(Cl)cc(Cl)cc54)c3)c2)C1 [Example 43]", "EXPERIMENTAL_VALUE": "100 to 10000 nM"}

Please look up its IC50: CN1Cc2c(Cl)cc(Cl)cc2[C@H](c2cccc(S(=O)(=O)NCCOCCOCCNC(=O)CCC(CCC(=O)NCCOCCOCCNS(=O)(=O)c3cccc([C@@H]4CN(C)Cc5c(Cl)cc(Cl)cc54)c3)(CCC(=O)NCCOCCOCCNS(=O)(=O)c3cccc([C@@H]4CN(C)Cc5c(Cl)cc(Cl)cc54)c3)NC(=O)NCC(=O)O)c2)C1 [Example 7]
< 100 nM
